- System: OVCAR-3
- protocol.details: NCI tumour cell line growth inhibition, 48 h
Activity calls are given as the source filed them. Cut-off read from the data, not from the text of the source: active = GI50 up to about 1.1 µM and inactive = higher.
experimental.readout: GI50

Example cases with answers are listed next.
- compound: "COc1cc(OCc2ccc3nc(-c4ccccc4)c(N)nc3c2)cc(OC)c1OC"
  GI50: "16.4 µM (inactive)"
- compound: "Cc1cccc(CNc2[nH]cnc3nncc2-3)c1"
  GI50: "> 100 µM (inactive)"
- compound: "CCCOCN1COCN/C1=N\\C#N"
  GI50: "> 100 µM (inactive)"
- compound: "COC(=O)C(=O)C(C(=O)C(=O)Nc1ccc(C)cc1C)c1nc2ccccc2nc1O (configuration not stated)"
  GI50: "32.7 µM (inactive)"
- compound: "NC(=S)N/N=C/c1cn(CCCl)c2ccccc12"
  GI50: "36.8 µM (inactive)"
- compound: "O=c1oc2cc(O)ccc2cc1-c1nc2ccccc2o1"
  GI50: "19.1 µM (inactive)"
- compound: "CCN1C(=O)CS/C1=N\\NC(=O)CSc1nc2ccccc2c(=O)n1CC"
  GI50: "> 100 µM (inactive)"
- compound: "Cc1ccccc1NC(=O)/C(=N\\NC(N)=S)C(C#N)c1ccccc1 (configuration not stated)"
  GI50: "> 100 µM (inactive)"
- compound: "O=c1c(C(c2cccc(C(c3c(O)oc4ccccc4c3=O)c3c(O)oc4ccccc4c3=O)c2)c2c(O)oc3ccccc3c2=O)c(O)oc2ccccc12"
  GI50: "35.3 µM (inactive)"
- compound: "COc1cc(C2C(Cl)C(=O)N2NC(=O)Cc2ccccc2)ccc1O (configuration not stated)"
  GI50: "33.3 µM (inactive)"

// each listed compound needs a value for GI50
1. O=c1c2c3c(sc2nc2n1NC=NN2)CCCC3
2. N#CC(c1ccccc1)c1cccc2ccccc12 (configuration not stated)

Ans:
1: 1.28 µM (inactive); 2: 29.9 µM (inactive)

---

- Test system: OVCAR-8
- protocol.details: NCI tumour cell line growth inhibition, 48 h
Activity calls are given as the source filed them. Cut-off read from the data, not from the text of the source: active = GI50 up to about 1.1 µM and inactive = higher.
experimental.readout: GI50

Take a look at these entries with their results.
- compound: "Nc1nc(Cl)cc(NCC2(CO)CCC(CCc3ccccc3)C2)n1 (centres undefined)"
  experimental.readout: "GI50"
  result: "14.6 µM (inactive)"
- compound: "COC(=O)C(Cc1nc2ccc(Cl)cc2nc1O)/C(=N/O)C(=O)Nc1cccc(Cl)c1C (centres undefined)"
  experimental.readout: "GI50"
  result: "> 100 µM (inactive)"
- compound: "CC(=O)c1sc2c(c1OC(=O)c1ccc(Cl)cc1)c(=O)n(-c1ccccc1)c(=S)n2-c1ccccc1"
  experimental.readout: "GI50"
  result: "3.48 µM (inactive)"

Here's the next entry for you.
Q: Identify the measured GI50 of COc1ccc(C2=Cc3nc2c(-c2ccccc2)c2ccc([nH]2)c(-c2ccccc2)c2nc(c(-c4ccccc4)c4ccc([nH]4)c3-c3ccccc3)C=C2)cc1 for OVCAR-8.
Ans: > 100 µM (inactive)

---

- System: PC-3
- protocol.details: NCI tumour cell line growth inhibition, 48 h
Active and inactive are the calls of the source. No stated cut-off is given here; in the data, active = GI50 up to about 1.1 µM and inactive = higher.
Hi there, use one of these labels in your reply, thanks! active, inactive

Example entries and their recorded answers appear below.
- molecule: "O=C(O)c1cc([N+](=O)[O-])cc2c(=O)c3cnccc3[nH]c12"
  group.label: "inactive"
- molecule: "C=CC(O)(CBr)CCC(Br)C(=C)C (stereo not drawn)"
  group.label: "inactive"
- molecule: "Cc1cnoc1/N=C1\\C=C(O)C(=O)c2ccccc21"
  group.label: "inactive"
- molecule: "CC1=NN=C(N)N/C1=C/C(Sc1ccc(Cl)cc1)c1cccs1 (stereo not drawn)"
  group.label: "inactive"

Q: I would be grateful if you could indicate the recorded call for CN(C)CCCCCNc1c2ccccc2nc2cccc([N+](=O)[O-])c12 .
Ans: active

Q: So what was the verdict on CCc1c(Cc2cc(C)cc(C)c2)n2c(nc1=O)SCC2CBr (stereo not drawn) in this test?
Ans: inactive
